ASSAY_REMARKS: Cytotoxicity in primary splenocytes, alamarBlue, 72 h
Assay type: cell-based
PARTICULARS: mouse; 72 h, alamarBlue, uninfected mice; read-out: Splenocytes CC50
Procedure: For cytotoxicity tests, several mammalian cell lines were used. […] Primary cell cultures were also used to evaluate cytotoxicity. […] The in vitro cytotoxicity of the selected nitrofurans was evaluated in HepG2, RAW 264.7 cells, splenocytes and BMDM. […] The cytotoxic effect of the compounds was measured after 72 h of incubation at 37 °C and 5 % CO2. […] Fluorescence was measured using a Varioskan Lux spectrophotometer (ThermoFisher Scientific, Waltham, MA, USA). […]
READOUT_NAME: CC50 at 72 h (µM)
Report the figure in µM without appending any unit label.

Form: molecule = CC1CS(=O)(=O)CCN1/N=C/c1ccc([N+](=O)[O-])o1 (stereo not shown) ; CC50 at 72 h = 37.8
